Each entry below carries its measured IC50, system: UniProtKB P17952.
Sequence (P17952 whole entry): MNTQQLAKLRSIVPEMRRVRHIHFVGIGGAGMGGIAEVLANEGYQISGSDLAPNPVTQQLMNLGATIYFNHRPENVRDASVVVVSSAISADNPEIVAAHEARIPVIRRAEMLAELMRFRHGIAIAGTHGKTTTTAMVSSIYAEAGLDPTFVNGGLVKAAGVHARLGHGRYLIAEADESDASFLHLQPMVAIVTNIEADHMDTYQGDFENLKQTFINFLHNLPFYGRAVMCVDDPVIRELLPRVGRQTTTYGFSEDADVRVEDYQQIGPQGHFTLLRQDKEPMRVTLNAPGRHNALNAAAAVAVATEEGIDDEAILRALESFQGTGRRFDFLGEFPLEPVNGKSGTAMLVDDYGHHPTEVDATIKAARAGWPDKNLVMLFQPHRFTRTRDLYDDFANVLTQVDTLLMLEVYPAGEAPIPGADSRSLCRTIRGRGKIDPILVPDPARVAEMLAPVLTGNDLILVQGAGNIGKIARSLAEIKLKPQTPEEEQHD
Give a bare numeral; the unit µM is implied.

Recorded IC50 (compound O=C1O/C(=C\c2cccc(C(F)(F)F)c2)C(O)=C1c1ccc(-c2ccccc2)c(F)c1 ): 18.8

Recorded IC50 (compound COc1ccccc1-c1ccc(/C=C2\OC(O)=C(c3cc(Cl)cc(Cl)c3)C2=O)cc1OC ): 12.8

Recorded IC50 (compound COc1ccc(C2=C(O)O/C(=C\c3cccc(C(F)(F)F)c3)C2=O)cc1 ): 38.6

Recorded IC50 (compound COc1ccc(C2=C(O)O/C(=C\c3cccc4ccccc34)C2=O)cc1 ): 46.5

Recorded IC50 (compound O=C1O/C(=C\c2cccc(C(F)(F)F)c2)C(O)=C1c1ccc(Cl)cc1 ): 16.4

====

- System: Enterococcus faecalis
- measurement-notes: Antibacterial activity against Enterococcus faecalis
- Format: functional
- settings: GC 4555
parameter-measured: MIC (µg/mL)
Give a bare numeral; the unit µg/mL is implied.

Recorded MIC (molecule COc1ccc(C2=C(O)O/C(=C\c3cccc(C(F)(F)F)c3)C2=O)cc1 ): 128

Recorded MIC (molecule O=C1O/C(=C\c2cccc(C(F)(F)F)c2Cl)C(O)=C1c1ccc(-c2ccccc2)c(F)c1 ): 2

Recorded MIC (molecule O=C1O/C(=C\c2ccc(-c3cc(Cl)cc(Cl)c3)cc2)C(O)=C1c1cc(Cl)cc(Cl)c1 ): 1

Recorded MIC (molecule O=C1O/C(=C\c2ccc(-c3ccccc3)cc2)C(O)=C1c1cccc2ccccc12 ): 32

Recorded MIC (molecule O=C1O/C(=C\c2cccc(-c3cccc(Cl)c3)c2)C(O)=C1c1cccc(Cl)c1 ): 8

Recorded MIC (molecule O=C1O/C(=C\c2cccc(-c3cc(Cl)cc(Cl)c3)c2)C(O)=C1c1cc(Cl)cc(Cl)c1 ): 1

Recorded MIC (molecule COc1ccccc1-c1ccc(/C=C2\OC(O)=C(c3cc(Cl)cc(Cl)c3)C2=O)cc1OC ): 8

Recorded MIC (molecule O=C1O/C(=C\c2ccc(Cl)cc2)C(O)=C1c1ccc(-c2ccccc2)cc1 ): 8

Recorded MIC (molecule O=C1O/C(=C\c2cccc(C(F)(F)F)c2)C(O)=C1c1ccc(-c2ccccc2)c(F)c1 ): 1

Recorded MIC (molecule O=C1O/C(=C\c2cccc3ccccc23)C(O)=C1c1cccc(C(F)(F)F)c1 ): 16

Recorded MIC (molecule O=C1O/C(=C\c2cc(C(F)(F)F)ccc2Cl)C(O)=C1c1ccc(N2CCOCC2)c(F)c1 ): 128

Recorded MIC (molecule O=C1O/C(=C\c2cccc3ccccc23)C(O)=C1c1ccc(Cl)cc1 ): 16

Recorded MIC (molecule Cc1cc(/C=C2\OC(O)=C(c3cc(Cl)cc(Cl)c3)C2=O)ccc1-c1ccccc1C(F)(F)F ): 2

Recorded MIC (molecule O=C1O/C(=C\c2ccccc2-c2ccc(Cl)c(Cl)c2)C(O)=C1c1ccc(Cl)c(Cl)c1 ): 1

Recorded MIC (molecule COc1cc(/C=C2\OC(O)=C(c3cc(Cl)cc(Cl)c3)C2=O)ccc1-c1ccccc1C(F)(F)F ): 2

Recorded MIC (molecule Cc1ccccc1-c1ccc(/C=C2\OC(O)=C(c3cc(Cl)cc(Cl)c3)C2=O)cc1C ): 2

Recorded MIC (molecule O=C1O/C(=C\C2CCCCC2)C(O)=C1c1cccc(C(F)(F)F)c1 ): 64

Recorded MIC (molecule O=C1O/C(=C\c2cccc(C(F)(F)F)c2)C(O)=C1c1ccc2ccccc2c1 ): 32

Recorded MIC (molecule O=C1O/C(=C\c2cccc(C(F)(F)F)c2)C(O)=C1c1ccc(-c2ccccc2)cc1 ): 8

Recorded MIC (molecule Cc1cc(/C=C2\OC(O)=C(c3cccc(Cl)c3)C2=O)ccc1-c1ccccc1C(F)(F)F ): 4

Recorded MIC (molecule O=C1O/C(=C\c2cc(C(F)(F)F)ccc2Cl)C(O)=C1c1ccc(-c2ccccc2)c(F)c1 ): 4

Recorded MIC (molecule O=C1O/C(=C\c2cc(C(F)(F)F)ccc2F)C(O)=C1c1ccc(-c2ccccc2)c(F)c1 ): 2

Recorded MIC (molecule O=C1O/C(=C\c2ccc(-c3ccccc3)cc2)C(O)=C1c1ccc2ccccc2c1 ): 8

Recorded MIC (molecule O=C1O/C(=C\C2CCCCC2)C(O)=C1c1ccc2ccccc2c1 ): 32

Recorded MIC (molecule O=C1O/C(=C\c2ccc3ccccc3c2)C(O)=C1c1cccc(C(F)(F)F)c1 ): 16

Recorded MIC (molecule O=C1O/C(=C\c2cccc(C(F)(F)F)c2)C(O)=C1c1ccc(Cl)cc1 ): 16

====

- assayed-system: UDP-N-acetylglucosamine 1-carboxyvinyltransferase (Escherichia coli K-12, UniProt P0A749)
- Sequence (P0A749 whole entry): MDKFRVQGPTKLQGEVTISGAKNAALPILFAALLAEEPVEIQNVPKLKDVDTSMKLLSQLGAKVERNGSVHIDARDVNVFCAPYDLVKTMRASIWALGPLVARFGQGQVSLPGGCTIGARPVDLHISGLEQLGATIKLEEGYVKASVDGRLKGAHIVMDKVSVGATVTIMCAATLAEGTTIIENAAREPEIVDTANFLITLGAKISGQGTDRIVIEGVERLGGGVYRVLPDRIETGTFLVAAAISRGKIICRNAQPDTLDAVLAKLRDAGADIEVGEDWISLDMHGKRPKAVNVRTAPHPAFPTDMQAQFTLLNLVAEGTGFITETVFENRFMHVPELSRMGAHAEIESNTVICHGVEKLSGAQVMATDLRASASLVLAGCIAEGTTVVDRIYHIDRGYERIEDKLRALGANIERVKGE
Answer each item with its documented IC50.
Give a bare numeral; the unit µM is implied.

Recorded IC50 (compound O=C1O/C(=C\c2cccc(C(F)(F)F)c2)C(O)=C1c1ccc(Cl)cc1 ): 38.2

Recorded IC50 (compound O=C1O/C(=C\c2ccccc2-c2ccc(Cl)c(Cl)c2)C(O)=C1c1ccc(Cl)c(Cl)c1 ): 6.27

Recorded IC50 (compound Cc1cc(/C=C2\OC(O)=C(c3cccc(Cl)c3)C2=O)ccc1-c1ccccc1C(F)(F)F ): 8.76

Recorded IC50 (compound O=C1O/C(=C\c2cccc(-c3cc(Cl)cc(Cl)c3)c2)C(O)=C1c1cc(Cl)cc(Cl)c1 ): 4.18

====

pIC50: −log10 of the molar value.
parameter-measured: pIC50

Bench note, UDP-N-acetylmuramoylalanine--D-glutamate ligase (Escherichia coli K-12, UniProt P14900): entry O=C1O/C(=C\c2ccc(-c3ccccc3)cc2)C(O)=C1c1cccc2ccccc12 , its pIC50 = < 4.19

Bench note, UDP-N-acetylmuramoylalanine--D-glutamate ligase (Escherichia coli K-12, UniProt P14900): entry O=C1O/C(=C\C2CCCCC2)C(O)=C1c1cccc(C(F)(F)F)c1 , its pIC50 = < 4.13

Bench note, UDP-N-acetylmuramoylalanine--D-glutamate ligase (Escherichia coli K-12, UniProt P14900): entry O=C1O/C(=C\c2cccc3ccccc23)C(O)=C1c1ccc(Cl)cc1 , its pIC50 = < 4.14

Bench note, UDP-N-acetylmuramoylalanine--D-glutamate ligase (Escherichia coli K-12, UniProt P14900): entry O=C1O/C(=C\c2cccc3ccccc23)C(O)=C1c1cccc(C(F)(F)F)c1 , its pIC50 = < 4.18

Bench note, UDP-N-acetylmuramoylalanine--D-glutamate ligase (Escherichia coli K-12, UniProt P14900): entry COc1ccc(C2=C(O)O/C(=C\c3cccc(C(F)(F)F)c3)C2=O)cc1 , its pIC50 = 4.16

Bench note, UDP-N-acetylmuramoylalanine--D-glutamate ligase (Escherichia coli K-12, UniProt P14900): entry COc1ccccc1-c1ccc(/C=C2\OC(O)=C(c3cc(Cl)cc(Cl)c3)C2=O)cc1OC , its pIC50 = < 4.27

Bench note, UDP-N-acetylmuramoylalanine--D-glutamate ligase (Escherichia coli K-12, UniProt P14900): entry O=C1O/C(=C\c2cccc(C(F)(F)F)c2)C(O)=C1c1ccc(-c2ccccc2)cc1 , its pIC50 = < 4.21

Bench note, UDP-N-acetylmuramoylalanine--D-glutamate ligase (Escherichia coli K-12, UniProt P14900): entry COc1ccc(C2=C(O)O/C(=C\c3cccc4ccccc34)C2=O)cc1 , its pIC50 = < 4.14

Bench note, UDP-N-acetylmuramoylalanine--D-glutamate ligase (Escherichia coli K-12, UniProt P14900): entry O=C1O/C(=C\c2ccc(Cl)cc2)C(O)=C1c1ccc(-c2ccccc2)cc1 , its pIC50 = < 4.18

Bench note, UDP-N-acetylmuramoylalanine--D-glutamate ligase (Escherichia coli K-12, UniProt P14900): entry O=C1O/C(=C\c2ccc(-c3ccccc3)cc2)C(O)=C1c1ccc2ccccc2c1 , its pIC50 = < 4.19

====

- assayed-system: UDP-N-acetylglucosamine 1-carboxyvinyltransferase 1 (Staphylococcus aureus subsp. aureus N315, UniProt P84058)
- Sequence (P84058 whole entry): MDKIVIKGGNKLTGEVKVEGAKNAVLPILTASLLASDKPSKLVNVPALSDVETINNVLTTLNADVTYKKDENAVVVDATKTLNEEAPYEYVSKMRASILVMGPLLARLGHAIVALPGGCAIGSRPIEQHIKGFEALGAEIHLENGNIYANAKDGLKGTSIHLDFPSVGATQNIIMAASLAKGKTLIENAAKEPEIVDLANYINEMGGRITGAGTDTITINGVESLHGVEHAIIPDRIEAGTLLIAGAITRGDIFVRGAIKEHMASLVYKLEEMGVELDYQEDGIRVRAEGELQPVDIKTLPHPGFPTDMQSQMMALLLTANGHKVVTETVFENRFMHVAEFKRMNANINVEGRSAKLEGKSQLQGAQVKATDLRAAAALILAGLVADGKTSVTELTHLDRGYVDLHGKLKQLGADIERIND
parameter-measured: pIC50
Quick note: pIC50 means taking -log10 of the concentration in moles per liter.

Recorded pIC50 (compound Cc1cc(/C=C2\OC(O)=C(c3cc(Cl)cc(Cl)c3)C2=O)ccc1-c1ccccc1C(F)(F)F ): 5.39

====

Each entry below carries its measured IC50, system: UDP-N-acetylglucosamine 1-carboxyvinyltransferase (Escherichia coli K-12, UniProt P0A749).
Give a bare numeral; the unit µM is implied.

Recorded IC50 (compound Cc1ccccc1-c1ccc(/C=C2\OC(O)=C(c3cc(Cl)cc(Cl)c3)C2=O)cc1C ): 4.57

Recorded IC50 (compound O=C1O/C(=C\c2cccc(C(F)(F)F)c2)C(O)=C1c1ccc(-c2ccccc2)c(F)c1 ): 23.5

Recorded IC50 (compound COc1ccccc1-c1ccc(/C=C2\OC(O)=C(c3cc(Cl)cc(Cl)c3)C2=O)cc1OC ): 36.2

Recorded IC50 (compound COc1cc(/C=C2\OC(O)=C(c3cc(Cl)cc(Cl)c3)C2=O)ccc1-c1ccccc1C(F)(F)F ): 7.89

====

Answer each item with its documented IC50.
Target chain: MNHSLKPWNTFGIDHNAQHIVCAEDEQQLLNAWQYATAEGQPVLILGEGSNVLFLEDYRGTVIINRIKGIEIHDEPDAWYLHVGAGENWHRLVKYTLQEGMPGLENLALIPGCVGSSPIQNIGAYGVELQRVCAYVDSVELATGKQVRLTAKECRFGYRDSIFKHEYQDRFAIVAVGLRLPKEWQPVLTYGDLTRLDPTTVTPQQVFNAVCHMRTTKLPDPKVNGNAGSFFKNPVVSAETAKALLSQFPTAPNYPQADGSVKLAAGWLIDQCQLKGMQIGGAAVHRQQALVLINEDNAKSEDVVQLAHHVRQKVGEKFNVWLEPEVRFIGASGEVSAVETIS

Recorded IC50 (compound Cc1ccccc1-c1ccc(/C=C2\OC(O)=C(c3cc(Cl)cc(Cl)c3)C2=O)cc1C ): 2.29 µM

Recorded IC50 (compound O=C1O/C(=C\C2CCCCC2)C(O)=C1c1cccc(C(F)(F)F)c1 ): > 73.9 µM

Recorded IC50 (compound Cc1cc(/C=C2\OC(O)=C(c3cc(Cl)cc(Cl)c3)C2=O)ccc1-c1ccccc1C(F)(F)F ): 6.11 µM

Recorded IC50 (compound COc1ccc(C2=C(O)O/C(=C\c3cccc(C(F)(F)F)c3)C2=O)cc1 ): > 69 µM

Recorded IC50 (compound O=C1O/C(=C\c2ccc(-c3ccccc3)cc2)C(O)=C1c1cccc2ccccc12 ): > 64 µM

Recorded IC50 (compound O=C1O/C(=C\c2cc(C(F)(F)F)ccc2Cl)C(O)=C1c1ccc(N2CCOCC2)c(F)c1 ): 21.3 µM

Recorded IC50 (compound O=C1O/C(=C\c2cccc(C(F)(F)F)c2)C(O)=C1c1ccc(Cl)cc1 ): 24.5 µM

Recorded IC50 (compound COc1ccc(C2=C(O)O/C(=C\c3cccc4ccccc34)C2=O)cc1 ): > 72.6 µM
